# assaySystem: Progesterone receptor (Homo sapiens) (UniProt P06401)
# Sequence (P06401 whole entry, looked up): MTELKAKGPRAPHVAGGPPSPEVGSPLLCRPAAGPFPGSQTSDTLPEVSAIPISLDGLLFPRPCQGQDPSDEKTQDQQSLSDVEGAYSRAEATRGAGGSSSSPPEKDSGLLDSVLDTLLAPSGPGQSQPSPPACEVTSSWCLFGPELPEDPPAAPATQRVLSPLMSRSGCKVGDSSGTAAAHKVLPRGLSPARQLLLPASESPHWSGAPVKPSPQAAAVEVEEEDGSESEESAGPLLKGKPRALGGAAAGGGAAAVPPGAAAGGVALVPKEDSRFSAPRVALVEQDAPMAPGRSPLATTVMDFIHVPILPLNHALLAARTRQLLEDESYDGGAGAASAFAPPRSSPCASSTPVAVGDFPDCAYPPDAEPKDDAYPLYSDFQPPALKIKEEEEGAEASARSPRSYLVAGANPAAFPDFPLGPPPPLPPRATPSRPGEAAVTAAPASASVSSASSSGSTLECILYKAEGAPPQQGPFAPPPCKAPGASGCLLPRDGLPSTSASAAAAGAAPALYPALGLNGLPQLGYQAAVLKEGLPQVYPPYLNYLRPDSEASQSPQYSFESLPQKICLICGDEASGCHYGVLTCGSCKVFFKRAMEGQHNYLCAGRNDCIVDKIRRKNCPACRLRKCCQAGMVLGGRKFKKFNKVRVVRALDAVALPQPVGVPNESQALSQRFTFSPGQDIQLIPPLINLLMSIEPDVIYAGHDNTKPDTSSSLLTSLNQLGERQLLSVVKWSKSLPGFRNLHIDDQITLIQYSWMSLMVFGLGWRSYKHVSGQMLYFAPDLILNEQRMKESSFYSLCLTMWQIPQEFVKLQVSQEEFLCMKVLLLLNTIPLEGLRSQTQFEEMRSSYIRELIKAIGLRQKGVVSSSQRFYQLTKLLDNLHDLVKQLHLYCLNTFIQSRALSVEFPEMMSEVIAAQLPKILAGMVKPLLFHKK
# assayProtocol: qHTS assay to identify small molecule antagonists of the progesterone receptor (PR) signaling pathway (AID 1346795); also: % is scaled to controls: 0 for no effect and ±100 for the full control effect
# protocolConditions: PR-UAS-bla HEK293T, beta-lactamase FRET ratio, 16 h; series mostly up to 92.4 µM
Records with an inconclusive call do not appear. The source made the active and inactive calls. Calls follow the shape of the dose curve; as a rule, active = well fitted inhibition curve with a large enough effect in the signal ratio in the repeat runs (not every such curve was filed as active); inconclusive = weak or mixed curves; inactive = flat fitted curve, though single readings scatter; the % refers to the signal ratio.
parameter: outcome

# count of solved cases: 5
CCCCNc1ccc(C(=O)OCCN(CC)CC)cc1: inactive
CN1CCN(c2c(F)cc3c(=O)c(C(=O)O)cn4c3c2SCC4)CC1: inactive
CCCOCCC: inactive
CCOc1ccccc1N: inactive
O=C(Cl)c1cccc([N+](=O)[O-])c1: inactive

Could you share which outcome value was measured for "O=C1Nc2ccc([N+](=O)[O-])cc2C1=O" ?
inactive

Could you share which outcome value was measured for C=CC1CO1 (centres undefined) ?
inactive

Could you share which outcome value was measured for "COc1ccc(S(=O)(=O)Nc2nnc(CC(C)C)s2)cc1" ?
inactive

Could you share which outcome value was measured for "COc1cc(N)c(Cl)cc1C(=O)NC1CCN(Cc2ccccc2)CC1" ?
inactive

Could you share which outcome value was measured for CCCCCOc1ccc(C2SC(=O)NC2=O)cc1OCC (centres undefined) ?
inactive

Could you share which outcome value was measured for "CCCC(CCC)(C(=O)OCC)C(=O)OCC" ?
inactive

Could you share which outcome value was measured for COc1ccccc1OCC(O)COC(N)=O (centres undefined) ?
inactive

Could you share which outcome value was measured for CCCCC(CC)COC(=O)COc1cc(Cl)c(Cl)cc1Cl (centres undefined) ?
inactive

Could you share which outcome value was measured for "Cc1ncc(CO)c(CN)c1O" ?
inactive

* * *

# assaySystem: Glucocorticoid receptor (Homo sapiens) (UniProt P04150)
# Sequence (P04150 whole entry, looked up): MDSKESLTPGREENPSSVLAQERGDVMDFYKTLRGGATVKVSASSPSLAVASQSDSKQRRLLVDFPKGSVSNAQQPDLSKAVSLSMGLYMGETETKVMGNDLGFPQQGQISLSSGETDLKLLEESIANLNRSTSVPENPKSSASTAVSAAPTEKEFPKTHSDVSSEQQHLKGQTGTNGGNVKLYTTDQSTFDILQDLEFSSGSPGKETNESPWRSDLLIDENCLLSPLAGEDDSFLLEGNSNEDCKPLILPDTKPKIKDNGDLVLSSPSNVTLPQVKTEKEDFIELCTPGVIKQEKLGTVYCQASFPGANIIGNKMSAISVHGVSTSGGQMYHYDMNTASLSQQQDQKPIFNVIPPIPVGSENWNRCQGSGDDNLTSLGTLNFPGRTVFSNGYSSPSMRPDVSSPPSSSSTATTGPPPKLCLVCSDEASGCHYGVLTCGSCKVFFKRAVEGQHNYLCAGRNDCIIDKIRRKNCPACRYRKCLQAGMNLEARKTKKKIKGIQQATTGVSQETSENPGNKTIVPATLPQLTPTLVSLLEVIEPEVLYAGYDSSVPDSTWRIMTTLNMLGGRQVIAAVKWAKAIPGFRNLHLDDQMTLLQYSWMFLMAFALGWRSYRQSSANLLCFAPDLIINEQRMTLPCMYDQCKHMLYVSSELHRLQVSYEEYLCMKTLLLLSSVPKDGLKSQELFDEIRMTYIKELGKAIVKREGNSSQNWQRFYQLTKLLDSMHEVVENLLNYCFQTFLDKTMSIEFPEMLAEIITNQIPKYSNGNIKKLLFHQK
# assayProtocol: qHTS assay to identify small molecule agonists of the glucocorticoid receptor (GR) signaling pathway (AID 720691); as to activation: % is scaled to controls: 0 for no effect and ±100 for the full control effect
# protocolConditions: GR-bla HeLa, beta-lactamase reporter ratio, 18 h; series mostly up to 62.4 µM
Records with an inconclusive call do not appear. Calls of active or inactive are those of the source. The call rests on the fitted dose curve; in most records, active means well fitted activation curve with a large enough effect in the signal ratio in the repeat runs (not every such curve was filed as active); inconclusive means weak or mixed curves, or effect the other way; inactive means no such curve, though single readings can be large or run the other way; the % refers to the signal ratio.
Your reply should match one of these outcome classes. yes (1) (active), no (0) (inactive)

Test call for this molecule, please: "Cc1ccc(C)c(N)c1"
no (0)

Test call for this molecule, please: "CN1CCN(c2c(F)cc3c(=O)c(C(=O)O)cn4c3c2SCC4)CC1"
no (0)

Test call for this molecule, please: C=CC1CO1 (stereo not drawn)
no (0)

Test call for this molecule, please: "OCC(CBr)(CBr)CBr"
no (0)

Test call for this molecule, please: "C[C@]12CCC(=O)C=C1CC[C@@H]1[C@@H]2CC[C@@]2(C)[C@H]1CC[C@]2(O)C(=O)CO"
yes (1)

Test call for this molecule, please: "C=CCCCCCCCCO"
no (0)

Test call for this molecule, please: "COc1cc(N)c(Cl)cc1C(=O)NC1CCN(Cc2ccccc2)CC1"
no (0)

Test call for this molecule, please: "Cn1cnc2c(F)c(Nc3ccc(Br)cc3Cl)c(C(=O)NOCCO)cc21"
no (0)

Test call for this molecule, please: "CN1CCN(C2=Nc3cc(F)ccc3Cc3ccccc32)CC1"
no (0)

Test call for this molecule, please: "CN1CCN(c2c(F)cc3c(=O)c(C(=O)O)cn(CCF)c3c2F)CC1"
no (0)

Test call for this molecule, please: "CCC/C=C/CO"
no (0)

Test call for this molecule, please: O=C1CCCCC1C1CCCCC1 (stereo not drawn)
no (0)

Test call for this molecule, please: "Nc1ccc(Oc2ccc(N)c(N)c2)cc1"
no (0)

Test call for this molecule, please: "O=C1N(c2ccccc2)c2ccccc2C1(Cc1ccncc1)Cc1ccncc1"
no (0)

Test call for this molecule, please: "O=C1C=CC(=O)O1"
no (0)

Test call for this molecule, please: "CCCc1c2oc(C(=O)O)cc(=O)c2cc2c(=O)cc(C(=O)O)n(CC)c12"
no (0)

Test call for this molecule, please: "CCOc1ccccc1N"
no (0)

Test call for this molecule, please: "CCN[C@H]1CN(CCCOC)S(=O)(=O)c2sc(S(N)(=O)=O)cc21"
no (0)

Test call for this molecule, please: "Oc1ccccc1C=NCc1ccccc1"
no (0)

Test call for this molecule, please: CC(C)NCC(O)COc1ccc(CCOCC2CC2)cc1 (stereo not drawn)
no (0)

Test call for this molecule, please: "NCCCN1CCN(CCCN)CC1"
no (0)

Test call for this molecule, please: "FC(F)(F)C(F)(F)C(F)(F)C(F)(F)C(F)(F)C(F)(F)C(F)(F)C(F)(F)Br"
no (0)

Test call for this molecule, please: CCCNC(C)C(=O)Nc1c(C)csc1C(=O)OC (stereo not drawn)
no (0)

Test call for this molecule, please: "CC(=O)OC(C)OC(C)=O"
no (0)

Test call for this molecule, please: "CC1=CC(=O)CC(C)(C)C1=O"
no (0)

Test call for this molecule, please: "CC(C)=CCC[C@](C)(O)[C@@H]1CC=C(C)CC1"
no (0)

Test call for this molecule, please: "CO[Si](C)(C)OC"
no (0)

Test call for this molecule, please: "O=C1CCC(C2CCCCC2)CC1"
no (0)
